protocol.summary: activity coefficient (dimensionless); of the first substance listed, at infinite dilution; xn = mol fraction of the nth substance listed
measurement.parameters: 328.16 K; 101 kPa; Liquid; dilutor technique; x1 = 0
Below, each entry is listed with its recorded activity coefficient.
// no unit string in output, number only

Solved entries (count: 4):
{"molecule": "CCCCCCCCCC [decane] + CCCCCCn1cc[n+](C)c1.F[B-](F)(F)F", "activity coefficient": 115}
{"molecule": "CCCCCCCC [octane] + CCCCn1cc[n+](C)c1.F[B-](F)(F)F", "activity coefficient": 160}
{"molecule": "C=CCCCCCCCC [1-decene] + CCCCCCn1cc[n+](C)c1.F[B-](F)(F)F", "activity coefficient": 48.7}
{"molecule": "CCCCCCC [heptane] + CCCCn1cc[n+](C)c1.F[B-](F)(F)F", "activity coefficient": 89}

INPUT: Which measured activity coefficient value corresponds to CCCCCCCCC [nonane] + CCCCCCn1cc[n+](C)c1.F[B-](F)(F)F ?
OUTPUT: 81.2

---

protocol.summary: activity coefficient (dimensionless); of the first substance listed, at infinite dilution; xn = mol fraction of the nth substance listed
measurement.parameters: 338.14 K; 101 kPa; Liquid; dilutor technique; x1 = 0
endpoint.name: activity coefficient
// no unit string in output, number only

INPUT: Which measured activity coefficient value corresponds to CCCCCCCCC [nonane] + CCCCCCn1cc[n+](C)c1.F[B-](F)(F)F ?
OUTPUT: 76.7

INPUT: Which measured activity coefficient value corresponds to C=CCCCCC [1-heptene] + CCCCCCn1cc[n+](C)c1.F[B-](F)(F)F ?
OUTPUT: 18.8

INPUT: Which measured activity coefficient value corresponds to C=CCCCCCC [oct-1-ene] + CCCCCCn1cc[n+](C)c1.F[B-](F)(F)F ?
OUTPUT: 27.2

INPUT: Which measured activity coefficient value corresponds to CCCCCCCC [octane] + CCCCn1cc[n+](C)c1.F[B-](F)(F)F ?
OUTPUT: 146

INPUT: Which measured activity coefficient value corresponds to CCCCCCCCCC [decane] + CCCCCCn1cc[n+](C)c1.F[B-](F)(F)F ?
OUTPUT: 110

INPUT: Which measured activity coefficient value corresponds to CCCCCCC [heptane] + CCCCn1cc[n+](C)c1.F[B-](F)(F)F ?
OUTPUT: 80.1
